These measurements were taken from PubChem BioAssay.

assay: small-molecule microarray binders of probe aEGFR, primary screen, biochemical, biotinylated probe, 635/667 nm fluorescence (AID 1097); conditions: higher = more signal;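 note: probe is a biotinylated anti-EGFR antibody binding compounds printed on slides; score combines fluorescence near 667 nm and signal to noise of each spot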
Threshold check on composite z-score: at or above -0.07 gives Criterion met, strictly below gives Criterion not met.

INSERT INTO results (molecule, category) VALUES
  ('O=C1C2C=CC(C(O)c3ccccc3)N(n3cnnc3)C2C(=O)N1Cc1ccccc1 (centres undefined)', 'Criterion met'),
  ('CCCN1C(=O)[C@@]2(CCS(=O)(=O)c3ccccc3)N=C(c3ccc(OCCCO)cc3)O[C@H]2c2ccccc21', 'Criterion met'),
  ('COCCOC(=O)N1C(=O)[C@@]2(c3cc(C#CCNC(N)=O)ccc31)[C@H](c1ccc(OCCO)cc1)N1[C@H](c3ccccc3)[C@H](c3ccccc3)OC(=O)[C@H]1[C@@H]2C(=O)Nc1nc2ccccc2s1', 'Criterion met'),
  ('Cc1ccc(S(=O)(=O)N[C@H]2COC(=O)CC=C[C@H](C)COC(=O)N[C@@H](C)C(=O)CC=C[C@@H]2C)cc1', 'Criterion met'),
  ('CO[C@H]1COC(=O)[C@H](C)NC(=O)CC=C[C@@H](C)[C@H](NS(=O)(=O)c2ccc(C)cc2)COC(=O)[C@@H](OCc2ccccc2)C=C[C@@H]1C', 'Criterion not met'),
  ('O=C(NCc1ccccc1)c1ccc(Br)cc1[N+](=O)[O-]', 'Criterion met'),
  ('COc1ccc(-c2cc3c(c(-c4ccccc4)n2)[Si](C(C)C)(C(C)C)O[C@H]3c2ccccc2)cn1', 'Criterion met'),
  ('CN1CCC(CCCO)=CC1C1CC1 (centres undefined)', 'Criterion not met'),
  ('COc1ccc(C(=O)Nc2ccc(CN3C(=O)[C@]4(O[C@H](CCn5cc(CCO)nn5)[C@@H]([Si](C)(C)c5ccc(OC)cc5)[C@@H]4C)c4ccccc43)cc2)cc1', 'Criterion met'),
  ('C=CCC(OC(C)=O)[C@@H]1[C@@H](N(Cc2cccc3ccccc23)C(=O)Cc2ccc(F)cc2)c2cc(OCCCO)ccc2N1C(=O)Cc1ccc2ccccc2c1 (some centres undefined)', 'Criterion not met'),
  ('CN1C(=O)C2C=CC(C(O)c3ccc(N(C)C)cc3)N(Nc3ccc([N+](=O)[O-])cc3[N+](=O)[O-])C2C1=O (centres undefined)', 'Criterion met'),
  ('C=CCNC(=O)[C@H]1[C@@H]2C(=O)O[C@@H](c3ccccc3)[C@@H](c3ccccc3)N2[C@@H](c2ccc(O)cc2)[C@]12C(=O)Nc1ccc(C#CCNC(N)=O)cc12', 'Criterion not met'),
  ('CO[C@H]1COC(=O)[C@@H](C)COC(=O)[C@H](Cc2ccccc2)NC(=O)CC=C[C@H]1C', 'Criterion not met'),
  ('COC(=O)C1=C(C)N(Cc2ccccc2)c2c(C(=O)OC)c(C(=O)OC)c(C(=O)OC)c(=O)n2[C@@H]1c1ccccc1', 'Criterion met'),
  ('CCCC=C(CCC)[C@@H](NC(=O)c1ccccc1)c1ccccc1', 'Criterion not met'),
  ('C=C[C@H](OC)[C@@H](OC(=O)Nc1ccc(SC)cc1)c1ccc(OC)c(O)c1', 'Criterion not met'),
  ('CCOC(=O)C[C@H]1[C@H](OC(=O)c2ccccc2-c2ccccc2)[C@@H](NC(=O)c2ccc(-c3ccccc3)cc2)c2cc(OCCCO)ccc2N1C(=O)Cc1ccc(OC)cc1', 'Criterion met'),
  ('CCOC(=O)C1=CC[C@@H](c2ccc(-c3ccc(OCc4ccccc4)cc3)c(OC)c2)N(S(=O)(=O)c2ccc(C)cc2)[C@H]1c1ccccc1', 'Criterion met'),
  ('COCCCNC(=O)[C@@H]1c2ccccc2C(=O)N(CC23CC4CC(CC(C4)C2)C3)[C@H]1c1ccc(CO)cc1', 'Criterion met'),
  ('O=C1C[C@@](C(=O)NC2CC2)(c2ccc([N+](=O)[O-])cc2)[C@@H](c2ccc(CO)cc2I)N1CC12CC3CC(CC(C3)C1)C2', 'Criterion not met'),
  ('COc1cccc([C@@H]2[C@@H](C)CC[C@H]3C(=O)N(C)[C@@H](C(C)C)C(=O)N23)c1', 'Criterion not met'),
  ('C=CCNC(=O)[C@H]1[C@@H]2C(=O)O[C@@H](c3ccccc3)[C@@H](c3ccccc3)N2[C@@H](c2ccccc2OCCO)[C@]12C(=O)N(C(=O)OCCOC)c1ccc(C#CCNC(N)=O)cc12', 'Criterion met'),
  ('CCC(=O)[C@]12O[C@@]3([C@@H]4C(=O)OCC[C@@H]41)N(CC)C(C)=C(C(=O)OC)[C@@H](c1ccccc1)N3C2=O', 'Criterion not met'),
  ('C=C(COC)C(=O)CC[C@H](OC(=O)c1ccccc1-c1ccccc1C(=O)O)c1cccc(OCCO)c1', 'Criterion met'),
  ('CC(=O)NCCCC[C@@H]1NC(=O)[C@@H]2C[C@H](C(=O)NCCCCCCN(C)C)[C@H](c3ccc(O)cc3)N2C1=O', 'Criterion met'),
  ('N#Cc1ccc(NN2C(C(O)CCc3ccccc3)C=CC3C(=O)N(c4ccccc4)C(=O)C32)cc1 (centres undefined)', 'Criterion met'),
  ('CCOC(=O)C1=C[C@@H](c2ccccc2)N(S(=O)(=O)c2ccc(C)cc2)[C@H]1c1ccc(F)cc1', 'Criterion met');
